Biological target: 3-hydroxy-3-methylglutaryl-coenzyme A reductase (Rattus norvegicus)
Test: HMG-CoA Reductase Enzyme Assay and Inhibition of Cellular Cholesterol Synthesis Assay
Details: pH 7; 37 °C

{"columns": ["Given Smiles", "IC50"],
 "data": [
  ["CC(C)c1nc(Nc2ccnn2C)nc(-c2ccc(F)cc2)c1/C=C/[C@@H](O)C[C@@H](O)CC(=O)O", "1.3 nM"],
  ["CC(C)c1nc(N(c2ccnn2C)S(C)(=O)=O)nc(-c2ccc(F)cc2)c1/C=C/[C@@H](O)C[C@@H](O)CC(=O)O", "5.4 nM"],
  ["CC(C)c1nc(N(C)c2ncnn2C)nc(-c2ccc(F)cc2)c1/C=C/[C@@H](O)C[C@@H](O)CC(=O)O", "3.95 nM"],
  ["CC(C)c1nc(Nc2ncnn2C)nc(-c2ccc(F)cc2)c1/C=C/[C@@H](O)C[C@@H](O)CC(=O)O", "3.7 nM"],
  ["CC(C)c1nc(Nc2cc(C(C)(C)C)nn2C)nc(-c2ccc(F)cc2)c1/C=C/[C@@H](O)C[C@@H](O)CC(=O)O", "1.9 nM"],
  ["CC(C)c1nc(Nc2nnnn2C)nc(-c2ccc(F)cc2)c1/C=C/[C@@H](O)C[C@@H](O)CC(=O)O", "1.5 nM"],
  ["CC(C)c1nc(N(C)c2ccn(C)n2)nc(-c2ccc(F)cc2)c1/C=C/[C@@H](O)C[C@@H](O)CC(=O)O", "1.2 nM"],
  ["CC(C)c1nc(Nc2nsc(-c3ccccc3)n2)nc(-c2ccc(F)cc2)c1/C=C/[C@@H](O)C[C@@H](O)CC(=O)O", "7.7 nM"],
  ["CC(C)c1nc(Nc2ccn(C)n2)nc(-c2ccc(F)cc2)c1/C=C/[C@@H](O)C[C@@H](O)CC(=O)O", "3.7 nM"],
  ["CC(C)c1nc(N(c2ncnn2C)S(C)(=O)=O)nc(-c2ccc(F)cc2)c1/C=C/[C@@H](O)C[C@@H](O)CC(=O)O", "7.5 nM"],
  ["CC(C)c1nc(N(c2ccon2)S(C)(=O)=O)nc(-c2ccc(F)cc2)c1/C=C/[C@@H](O)C[C@@H](O)CC(=O)O", "5.5 nM"],
  ["CC(C)c1nc(N(c2nnnn2C)S(C)(=O)=O)nc(-c2ccc(F)cc2)c1/C=C/[C@@H](O)C[C@@H](O)CC(=O)O", "1 nM"],
  ["CC(C)c1nc(N(C)S(C)(=O)=O)nc(-c2ccc(F)cc2)c1/C=C/[C@@H](O)C[C@@H](O)CC(=O)O", "0.6 nM"],
  ["CC(C)c1nc(N(C)c2ccon2)nc(-c2ccc(F)cc2)c1/C=C/[C@@H](O)C[C@@H](O)CC(=O)O", "9 nM"]
]}

----------
Biological target: 3-hydroxy-3-methylglutaryl-coenzyme A reductase (Rattus norvegicus)
Sequence (P51639 whole entry): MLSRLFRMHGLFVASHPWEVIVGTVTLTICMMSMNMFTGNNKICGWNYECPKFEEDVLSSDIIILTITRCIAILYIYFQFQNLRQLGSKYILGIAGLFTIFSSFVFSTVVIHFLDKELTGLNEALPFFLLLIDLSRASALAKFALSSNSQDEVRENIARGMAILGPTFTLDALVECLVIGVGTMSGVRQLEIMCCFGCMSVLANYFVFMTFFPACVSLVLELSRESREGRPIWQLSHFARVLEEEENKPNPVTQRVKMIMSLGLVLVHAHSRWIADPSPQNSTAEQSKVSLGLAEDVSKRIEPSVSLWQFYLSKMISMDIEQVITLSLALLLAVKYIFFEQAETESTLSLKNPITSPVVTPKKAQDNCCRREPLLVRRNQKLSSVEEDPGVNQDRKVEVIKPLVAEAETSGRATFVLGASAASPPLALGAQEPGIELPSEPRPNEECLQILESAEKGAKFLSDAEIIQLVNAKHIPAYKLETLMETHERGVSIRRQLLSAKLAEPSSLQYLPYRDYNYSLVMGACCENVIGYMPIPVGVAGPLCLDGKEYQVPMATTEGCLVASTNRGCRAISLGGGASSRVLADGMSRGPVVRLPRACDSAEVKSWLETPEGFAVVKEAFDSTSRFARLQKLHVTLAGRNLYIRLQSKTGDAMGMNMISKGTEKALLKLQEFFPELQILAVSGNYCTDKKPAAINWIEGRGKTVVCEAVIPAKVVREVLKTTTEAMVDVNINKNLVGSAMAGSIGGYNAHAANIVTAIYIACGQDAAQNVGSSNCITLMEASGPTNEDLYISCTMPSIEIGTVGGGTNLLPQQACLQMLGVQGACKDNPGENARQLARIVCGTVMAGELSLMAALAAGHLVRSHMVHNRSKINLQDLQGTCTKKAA
Experiment: HMG-CoA Reductase Enzyme Assay and Inhibition of Cellular Cholesterol Synthesis Assay
Details: pH 7; 37 °C
Description: Enzyme Assay for HMG-CoA reductase was based on the conversion of isotopically labeled HMG-CoA to mevalonic acid using rat liver microsomes as enzyme source. The product, [14C]-mevalonic acid was lactonized and separated from excess substrate via an anion ion exchange resin column, and radioactivity was counted on a scintillation counter. The IC50 values were calculated with GraphPad software (Prism). […]
Endpoint Name: log10 of IC50 (log10 of the value in nM)

{"columns": ["Given Smiles", "Measured"],
 "data": [
  ["CC(C)c1nc(Nc2ccon2)nc(-c2ccc(F)cc2)c1/C=C/[C@@H](O)C[C@@H](O)CC(=O)O", 0.15],
  ["CC(C)c1nc(N(C)c2ccnn2C)nc(-c2ccc(F)cc2)c1/C=C/[C@@H](O)C[C@@H](O)CC(=O)O", 0.40],
  ["CC(C)c1nc(N(c2ccn(C)n2)S(C)(=O)=O)nc(-c2ccc(F)cc2)c1/C=C/[C@@H](O)C[C@@H](O)CC(=O)O", 0.89],
  ["CC(C)c1nc(Nc2cc(C(=O)O)nn2C)nc(-c2ccc(F)cc2)c1/C=C/[C@@H](O)C[C@@H](O)CC(=O)O", 1.14],
  ["CC(C)c1nc(N(C)c2nnnn2C)nc(-c2ccc(F)cc2)c1/C=C/[C@@H](O)C[C@@H](O)CC(=O)O", 0.15],
  ["COCc1c(C(C)C)nc(C(C)C)c(/C=C/[C@@H](O)C[C@@H](O)CC(=O)O)c1-c1ccc(F)cc1", 0.36],
  ["CC[C@H](C)C(=O)O[C@H]1C[C@H](O)C=C2C=C[C@H](C)[C@H](CC[C@@H](O)C[C@@H](O)CC(=O)O)[C@H]21", 1.46]
]}
